tested on: rice; test: Test C flood test plant response rating 0 to 100; assay type: in vivo, Oryza sativa; settings: Rate 16 g/ha; under POSTEMERGENCE head (flood test species)
Threshold rule: Plant response rating (0 to 100), Rice Japonica greater than or equal to 40 is 1.0; below that, 0.0.

molecule | category
CC(C)OC(=O)c1cc(-c2nn3c(c2Cl)CCCC3)c(F)cc1Cl | 0.0
C=C(Cl)COc1cc(-c2nn3c(c2Cl)CCCC3)c(F)cc1Cl | 0.0
C#CC(C)N1C(=O)COc2cc(F)c(-c3nn4c(c3Cl)CCCC4)cc21 (stereo not drawn) | 1.0
C#CC(C)Oc1cc(-c2nn3c(c2Br)CCCC3)c(F)cc1Cl (stereo not drawn) | 0.0
CCN1C(=O)COc2cc(F)c(-c3nn4c(c3Cl)CCCC4)cc21 | 1.0
CC(C)N1C(=O)COc2cc(F)c(-c3nn4c(c3Cl)CCCC4)cc21 | 0.0
CC(C)OC(=O)COc1cc(-c2nn3c(c2Cl)CCCC3)c(F)cc1Cl | 0.0
CC(C)Oc1cc(-c2nn3c(c2Br)CCCC3)c(F)cc1Cl | 0.0
CCOC(=O)COc1cc(-c2nn3c(c2Cl)CCCC3)c(F)cc1Cl | 0.0

###

tested on: downy brome; experiment: Test C preemergence/postemergence greenhouse plant response rating 0 to 100; assay type: in vivo, Bromus tectorum; settings: Rate 16 g/ha; POSTEMERGENCE
Listing of entries alongside the reported Plant response rating (0 to 100), Downy Brome.
property_measured: Plant response rating (0 to 100), Downy Brome

compound | quantitative_result
C#CC(C)Oc1cc(-c2nn3c(c2Cl)CCCC3)c(F)cc1Cl (stereo not shown) | 20
COC(=O)c1cc(-c2nn3c(c2Cl)CCCC3)c(F)cc1Cl | 40
C#CCN1C(=O)COc2cc(F)c(-c3nn4c(c3Br)CCCC4)cc21 | 60
C#CCN1C(=O)COc2cc(F)c(-c3nn4c(c3Cl)CCCC4)cc21 | 40
CC(C)COc1cc(-c2nn3c(c2Cl)CCCC3)c(F)cc1Cl | 40
CCN1C(=O)COc2cc(F)c(-c3nn4c(c3Cl)CCCC4)cc21 | 50
CC(C)OC(=O)COc1cc(-c2nn3c(c2Cl)CCCC3)c(F)cc1Cl | 10
C#CC(C)N1C(=O)COc2cc(F)c(-c3nn4c(c3Cl)CCCC4)cc21 (stereo not shown) | 40
CC(C)OC(=O)c1cc(-c2nn3c(c2Cl)CCCC3)c(F)cc1Cl | 40
C#CCOc1cc(-c2nn3c(c2Br)CCCC3)c(F)cc1Cl | 40

###

System: common ragweed
Test: Test G preemergence/postemergence greenhouse plant response rating 0 to 100
Assay type: in vivo, Ambrosia elatior
Settings: PREEMERGENCE, Rate 125 g/ha, 0 to 100 scale
Text: Seeds, rhizomes, or plant parts of alfalfa (Medicago ativa), annual bluegrass (Poa annua), bermudagrass (Cynodon dactylon), broadleaf signalgrass (Brachiaria plantaginea), common purslane (Portulaca oleracea), common ragweed (Ambrosia elatior), […] […] Untreated control plants and treated plants were placed in the greenhouse and visually evaluated for injury at 13 to 21 days after herbicide application. […]
Listing of entries alongside the reported Plant response rating, Cmn Ragweed.
property_measured: Plant response rating, Cmn Ragweed

smiles_code | result
CC(C)Oc1cc(-c2nn3c(c2Cl)CCCC3)c(F)cc1Cl | 50
CCS(=O)(=O)Oc1cc(-c2nn3c(c2Cl)CCCC3)c(F)cc1Cl | 0
CCCN1C(=O)COc2cc(F)c(-c3nn4c(c3Cl)CCCC4)cc21 | 0
C#CCOc1cc(-c2nn3c(c2Br)CCCC3)c(F)cc1Cl | 0
Fc1cc(Cl)c(OC2CCCC2)cc1-c1nn2c(c1Cl)CCCC2 | 40
C=CCN1C(=O)COc2cc(F)c(-c3nn4c(c3Cl)CCCC4)cc21 | 0

The measured values listed here are drawn from patent US6358885B1.
